Experimental system: M4 D (Homo sapiens, UniProt P08173, A203G/Y113C)
Construct: purchased NIMH Psychoactive Drug Screening Program (PDSP)
Sequence (P08173 whole entry Y113C/A203G): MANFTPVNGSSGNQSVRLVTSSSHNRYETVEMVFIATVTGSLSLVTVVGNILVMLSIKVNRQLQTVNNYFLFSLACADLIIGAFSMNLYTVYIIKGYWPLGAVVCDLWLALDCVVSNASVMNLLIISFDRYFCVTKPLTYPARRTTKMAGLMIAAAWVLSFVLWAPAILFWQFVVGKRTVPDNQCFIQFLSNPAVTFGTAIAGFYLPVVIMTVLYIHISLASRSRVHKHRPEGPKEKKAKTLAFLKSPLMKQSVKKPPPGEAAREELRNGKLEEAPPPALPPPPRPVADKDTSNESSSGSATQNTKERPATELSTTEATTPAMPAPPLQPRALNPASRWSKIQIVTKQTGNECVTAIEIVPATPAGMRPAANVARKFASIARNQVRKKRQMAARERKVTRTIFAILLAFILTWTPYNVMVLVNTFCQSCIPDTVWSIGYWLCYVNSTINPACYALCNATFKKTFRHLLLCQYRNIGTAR
Experimental protocol: PDSP primary binding M4 D
Reported conditions: primary binding, 10,000 nM; last figure of the line = mean of the 4 before it; read-out: M4 D, PDSP raw data, mean
Measured metric: inhibition at 10 µM
Answer with the value and then the unit.

Recorded inhibition at 10 µM, per entry:
C[C@H]1N=C(c2ccccc2F)c2cc(-c3ccccc3)ccc2-n2cnc(C(=O)N(C)C)c21 : 27.2%
C#Cc1ccc2c(c1)C(c1ccccc1F)=N[C@H](C)c1c(C(=S)N(C)C)ncn1-2 : 27.2%
CC(C)c1noc(-c2ncn3c2[C@@H](C)N=C(c2ccccc2F)c2cc(Cl)ccc2-3)n1 : -19.7%

In the following, a different compound is considered.
Per the record, C#Cc1ccc2c(c1)C(c1ccccc1Cl)=N[C@H](C)c1c(C(=O)NC)ncn1-2 has inhibition at 10 µM of 1.13%

###

Experimental system: 5-HT1A (Homo sapiens, UniProt P08908)
Construct: purchased NIMH Psychoactive Drug Screening Program (PDSP)
Sequence (P08908 1-422): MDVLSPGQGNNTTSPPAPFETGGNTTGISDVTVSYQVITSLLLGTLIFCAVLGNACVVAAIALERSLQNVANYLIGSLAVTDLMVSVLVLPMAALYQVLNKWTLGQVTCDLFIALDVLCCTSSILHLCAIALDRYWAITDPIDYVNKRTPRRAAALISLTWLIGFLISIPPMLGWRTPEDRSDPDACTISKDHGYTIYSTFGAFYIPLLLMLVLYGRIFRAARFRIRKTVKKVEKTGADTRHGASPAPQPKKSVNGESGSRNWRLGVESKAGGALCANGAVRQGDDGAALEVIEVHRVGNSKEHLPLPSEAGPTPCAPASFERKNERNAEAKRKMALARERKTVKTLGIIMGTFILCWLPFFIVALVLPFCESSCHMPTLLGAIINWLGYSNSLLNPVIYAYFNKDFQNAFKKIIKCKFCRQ
Experimental protocol: PDSP primary binding 5-HT1A
Reported conditions: 1.5 h; primary binding, 10,000 nM; last figure of the line = mean of the 4 before it; read-out: 5-HT1A, PDSP raw data, mean
Method: To determine if any off-target receptor-binding effects are present, all the novel ligands were sent to the National Institute of Mental Health (NIMH), Psychoactive Drug Screening Program (PDSP). […] The hERG-binding was also determined. […] The binding of a ligand to a receptor, ion channel, or transporter was determined in the […] of 10 µM of the appropriate reference compound. […] Radioactivity was then counted on a Microbeta counter. […]
Give inhibition at 10 µM for every item shown.
Answers are plain numbers, in %.

Recorded inhibition at 10 µM, per entry:
C#Cc1ccc2c(c1)C(c1ccccc1F)=N[C@H](C)c1c(C(=S)N(C)C)ncn1-2 : 2.37
C[C@H]1N=C(c2ccccc2F)c2cc(-c3ccccc3)ccc2-n2cnc(C(=O)N(C)C)c21 : 2.37
C#Cc1ccc2c(c1)C(c1ccccc1Cl)=N[C@H](C)c1c(C(=O)NC)ncn1-2 : 4.88

In the following, a different compound is considered.
Per the record, C#Cc1ccc2c(c1)C(c1ccccn1)=N[C@@H](C)c1c(C(=O)N(C)C)ncn1-2 has inhibition at 10 µM of -0.48

###

Experimental system: 5-HT1B (Homo sapiens, UniProt P28222)
Construct: purchased NIMH Psychoactive Drug Screening Program (PDSP)
Sequence (P28222 whole entry): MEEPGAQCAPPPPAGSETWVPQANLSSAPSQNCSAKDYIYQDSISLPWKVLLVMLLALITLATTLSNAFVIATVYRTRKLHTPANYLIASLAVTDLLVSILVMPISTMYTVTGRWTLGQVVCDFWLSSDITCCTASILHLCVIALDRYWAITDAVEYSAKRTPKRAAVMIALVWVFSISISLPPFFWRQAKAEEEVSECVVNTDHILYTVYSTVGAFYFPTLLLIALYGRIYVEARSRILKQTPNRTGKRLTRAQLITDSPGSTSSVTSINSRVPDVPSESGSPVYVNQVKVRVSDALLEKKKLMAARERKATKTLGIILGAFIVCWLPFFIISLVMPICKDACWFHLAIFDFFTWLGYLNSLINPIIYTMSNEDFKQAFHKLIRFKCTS
Experimental protocol: PDSP primary binding 5-HT1B
Reported conditions: 1.5 h; primary binding, 10,000 nM; last figure of the line = mean of the 4 before it; read-out: 5-HT1B, PDSP raw data, mean
Give inhibition at 10 µM for every item shown.
Give bare numbers, in %.

CCc1noc(-c2ncn3c2[C@@H](C)N=C(c2ccccc2F)c2cc(C4CC4)ccc2-3)n1 [Compound 46] : 15.1
C[C@H]1N=C(c2ccccc2F)c2cc(-c3ccccc3)ccc2-n2cnc(C(=O)N(C)C)c21 [Compound 5] : 11.8
CCc1noc(-c2ncn3c2CN=C(c2ccccc2F)c2cc(C4CC4)ccc2-3)n1 [Compound 44] : 62.1
CCc1noc(-c2ncn3c2[C@@H](C)N=C(c2ccccc2F)c2cc(-c4ccccc4)ccc2-3)n1 [Compound 35] : 11.6
C#Cc1ccc2c(c1)C(c1ccccc1F)=N[C@H](C)c1c(C(=S)N(C)C)ncn1-2 [Compound 33] : 11.8
C#Cc1ccc2c(c1)C(c1ccccc1Cl)=N[C@H](C)c1c(C(=O)N(C)CC)ncn1-2 [Compound 29] : -3.99

Lab note: each molecule below needs its inhibition at 10 µM filled in.
1. C#Cc1ccc2c(c1)C(c1ccccc1Cl)=N[C@H](C)c1c(C(=O)NC)ncn1-2 [Compound 21]
2. CCc1noc(-c2ncn3c2[C@@H](C)N=C(c2ccccc2F)c2cc(Cl)ccc2-3)n1 [Compound 36]
3. C[C@H]1N=C(c2ccccc2F)c2cc(Cl)ccc2-n2cnc(-c3nc(C4CC4)no3)c21 [Compound 38]
4. C#Cc1ccc2c(c1)C(c1ccccn1)=N[C@@H](C)c1c(C(=O)N(C)C)ncn1-2 [Compound 31]
5. CC(C)c1noc(-c2ncn3c2[C@@H](C)N=C(c2ccccc2F)c2cc(Cl)ccc2-3)n1 [Compound 37]
6. C#Cc1ccc2c(c1)C(c1ccccn1)=N[C@@H](C)c1c(C(=O)NC)ncn1-2 [Compound 23]

Resp:
-0.39
3.67
8.75
-0.27
10.4
-3.82

###

Experimental system: Beta1 (Homo sapiens, UniProt P08588)
Construct: purchased NIMH Psychoactive Drug Screening Program (PDSP)
Sequence (P08588 whole entry): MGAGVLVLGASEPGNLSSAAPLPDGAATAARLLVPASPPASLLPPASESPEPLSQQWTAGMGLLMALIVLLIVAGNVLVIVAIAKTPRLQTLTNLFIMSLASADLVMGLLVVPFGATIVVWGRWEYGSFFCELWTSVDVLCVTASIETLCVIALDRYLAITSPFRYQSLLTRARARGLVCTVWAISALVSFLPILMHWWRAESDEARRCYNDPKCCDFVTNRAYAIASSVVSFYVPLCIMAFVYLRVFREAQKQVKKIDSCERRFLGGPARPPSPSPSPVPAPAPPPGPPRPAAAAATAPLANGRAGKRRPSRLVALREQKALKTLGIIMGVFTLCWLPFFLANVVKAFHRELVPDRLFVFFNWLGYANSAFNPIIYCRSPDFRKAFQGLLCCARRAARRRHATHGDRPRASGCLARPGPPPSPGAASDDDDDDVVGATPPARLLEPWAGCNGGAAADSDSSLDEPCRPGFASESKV
Experimental protocol: PDSP primary binding Beta1
Reported conditions: 1.5 h; primary binding, 10,000 nM; last figure of the line = mean of the 4 before it; read-out: Beta1, PDSP raw data, mean
Protocol: To determine if any off-target receptor-binding effects are present, all the novel ligands were sent to the National Institute of Mental Health (NIMH), Psychoactive Drug Screening Program (PDSP). […] The hERG-binding was also determined. […] The binding of a ligand to a receptor, ion channel, or transporter was determined in the […] of 10 µM of the appropriate reference compound. […] Radioactivity was then counted on a Microbeta counter. […]
Give inhibition at 10 µM for every item shown.
Numbers only, in %.

C[C@H]1N=C(c2ccccc2F)c2cc(-c3ccccc3)ccc2-n2cnc(C(=O)N(C)C)c21 : -15.8
C#Cc1ccc2c(c1)C(c1ccccc1Cl)=N[C@H](C)c1c(C(=O)N(C)CC)ncn1-2 : 8.7
CCc1noc(-c2ncn3c2[C@@H](C)N=C(c2ccccc2F)c2cc(-c4ccccc4)ccc2-3)n1 : 0.99
C#Cc1ccc2c(c1)C(c1ccccc1Cl)=N[C@H](C)c1c(C(=O)NC)ncn1-2 : 13.1
C#Cc1ccc2c(c1)C(c1ccccn1)=N[C@@H](C)c1c(C(=O)NC)ncn1-2 : -10.8
C#Cc1ccc2c(c1)C(c1ccccc1F)=N[C@H](C)c1c(C(=S)N(C)C)ncn1-2 : -15.8

Lab note: each molecule below needs its inhibition at 10 µM filled in.
1. CCc1noc(-c2ncn3c2[C@@H](C)N=C(c2ccccc2F)c2cc(C4CC4)ccc2-3)n1
2. CC(C)c1noc(-c2ncn3c2[C@@H](C)N=C(c2ccccc2F)c2cc(Cl)ccc2-3)n1

Resp:
-26.4
8.14

###

Tested on: Alpha7
Experimental protocol: PDSP primary binding Alpha7
Reported conditions: primary binding, 10,000 nM; last figure of the line = mean of the 4 before it
Measured metric: Alpha7, PDSP raw data, mean (%)
One number for each entry, in %.

Recorded Alpha7, PDSP raw data, mean, per entry:
CCc1noc(-c2ncn3c2CN=C(c2ccccc2F)c2cc(C4CC4)ccc2-3)n1 : -24.22
C#Cc1ccc2c(c1)C(c1ccccc1F)=N[C@H](C)c1c(C(=S)N(C)C)ncn1-2 : -18.33
C#Cc1ccc2c(c1)C(c1ccccc1Cl)=N[C@H](C)c1c(C(=O)NC)ncn1-2 : -10.85

Lab note: each compound below needs its Alpha7, PDSP raw data, mean filled in.
1. C[C@H]1N=C(c2ccccc2F)c2cc(Cl)ccc2-n2cnc(-c3nc(C4CC4)no3)c21
2. C[C@H]1N=C(c2ccccc2F)c2cc(-c3ccccc3)ccc2-n2cnc(C(=O)N(C)C)c21
3. C#Cc1ccc2c(c1)C(c1ccccn1)=N[C@@H](C)c1c(C(=O)NC)ncn1-2
4. C#Cc1ccc2c(c1)C(c1ccccn1)=N[C@@H](C)c1c(C(=O)N(C)C)ncn1-2
5. C#Cc1ccc2c(c1)C(c1ccccc1Cl)=N[C@H](C)c1c(C(=O)N(C)CC)ncn1-2
6. CCc1noc(-c2ncn3c2[C@@H](C)N=C(c2ccccc2F)c2cc(-c4ccccc4)ccc2-3)n1
7. CCc1noc(-c2ncn3c2[C@@H](C)N=C(c2ccccc2F)c2cc(Cl)ccc2-3)n1

Resp:
1: 11.55; 2: -18.33; 3: -5.28; 4: -3.44; 5: -2.05; 6: -23.18; 7: -13.86

Lab note: each compound below needs its Alpha7, PDSP raw data, mean filled in.
1. CC(C)c1noc(-c2ncn3c2[C@@H](C)N=C(c2ccccc2F)c2cc(Cl)ccc2-3)n1
2. CCc1noc(-c2ncn3c2[C@@H](C)N=C(c2ccccc2F)c2cc(C4CC4)ccc2-3)n1

Resp:
[21.26, 4.57]
